# assayInfo: Acute toxicity (LD50, single intravenous administration)
# Design: species or system day mice
# runConditions: mouse, in vivo, mice, single i.v., Preparation Example 9
Structures can show the parent of a compound that is named as a salt.
reportedMetric: LD50

Consider the molecule shown here: COC1C(N)C(C)OC(OC2C(Oc3cccc4c(OC(=O)CC(C)C)c5c(=O)oc6ccc(C)c7c(=O)oc(c34)c5c67)OC(C)C3OC(c4ccccc4)OC32)C1O (stereo not shown) [Compound 39, hydrochloride] What is its recorded LD50?
≥ 60 mg/kg

----------
The following molecules are listed with their measured LD50 values.
# assayInfo: Acute toxicity (LD50, single intravenous administration)
# Design: species or system day mice
# runConditions: mouse, in vivo, mice, single i.v., Preparation Example 2

The following molecules have reported results that may help.
molecule	reportedMetric	experimentalResult
COC1C(O)C(C)OC(OC2C(Oc3cccc4c(OC(=O)C5CC(OC(C)=O)CC(C)(C)O5)c5c(=O)oc6ccc(C)c7c(=O)oc(c34)c5c67)OC(C)C3OC(c4ccccc4)OC32)C1O (centres unmarked)	LD50	≥ 20 mg/kg
COC1C(O)C(C)OC(OC2C(Oc3cccc4c(OC(=O)Cc5c[nH]c6ccccc56)c5c(=O)oc6ccc(C)c7c(=O)oc(c34)c5c67)OC(C)C3OC(c4ccccc4)OC32)C1O (centres unmarked)	LD50	≥ 40 mg/kg
CCn1cc(C(=O)Oc2c3cccc(OC4OC(C)C5OC(c6ccccc6)OC5C4OC4OC(C)C(O)C(OC)C4O)c3c3oc(=O)c4c(C)ccc5oc(=O)c2c3c54)c(=O)c2cnc(N3CCCC3)nc21 (centres unmarked)	LD50	≥ 60 mg/kg
COC1C(O)C(C)OC(OC2C(Oc3cccc4c(OC(=O)c5ocnc5C)c5c(=O)oc6ccc(C)c7c(=O)oc(c34)c5c67)OC(C)C3OC(c4ccccc4)OC32)C1O (centres unmarked)	LD50	≥ 60 mg/kg

Then this molecule:
Report LD50 for COC1C(O)C(C)OC(OC2C(Oc3cccc4c(OC(=O)CCCc5c[nH]c6ccccc56)c5c(=O)oc6ccc(C)c7c(=O)oc(c34)c5c67)OC(C)C3OC(c4ccccc4)OC32)C1O (centres unmarked) please.
≥ 60 mg/kg

----------
The entries below come with measured LD50 values attached.
# assayInfo: Acute toxicity (LD50, single intravenous administration)
# Set-up: species or system day mice
# runConditions: mouse, in vivo, mice, single i.v., Preparation Example 1
Counter-ions that a name gives are not always drawn.

What value of measured LD50 is listed for COC1C(N)C(C)OC(OC2C(Oc3cccc4c(OC(=O)CCC(C)=O)c5c(=O)oc6ccc(C)c7c(=O)oc(c34)c5c67)OC(C)C3OC(c4ccccc4)OC32)C1O (stereo not shown) ?
≥ 40 mg/kg

Same thing, different compound: COC1C(O)C(C)OC(OC2C(Oc3cccc4c(OC(=O)c5cc6ccccc6[nH]5)c5c(=O)oc6ccc(C)c7c(=O)oc(c34)c5c67)OC(C)C3OC(c4ccccc4)OC32)C1O (stereo not shown)
≥ 60 mg/kg

Now the same for COC1C(N)C(C)OC(OC2C(Oc3cccc4c(OC(=O)C(C)CNC(=O)C(F)(F)F)c5c(=O)oc6ccc(C)c7c(=O)oc(c34)c5c67)OC(C)C3OC(C)(C)OC32)C1O (stereo not shown)
≥ 80 mg/kg

// next record COC1C(N)C(C)OC(OC2C(Oc3cccc4c(OC(=O)CCCCCNC(=O)C(F)(F)F)c5c(=O)oc6ccc(C)c7c(=O)oc(c34)c5c67)OC(C)C3OC(c4ccccc4)OC32)C1O (stereo not shown) [Compound 37, hydrochloride]
≥ 40 mg/kg
